# targetEntity: Human thrombin (Homo sapiens)
# Construct: purchased Haematologic Technologies Inc
# experimentDescription: Inhibition of the protease activity of thrombin (chromogenic substrate S-2238)
# Type: biochemical
# settings: inhibition of the protease activity of thrombin; class symbols a/b/c
measure: IC50

substanceSmiles | IC50
COC(=O)c1n[nH]c(NC(=O)c2ccc(C)cc2)n1 | > 1000 nM

Q: Can you share its IC50? I mean this compound: "COc1ccc(CNc2nc(-c3ccncc3)nn2C(=O)C(C)C)cc1"
A: < 100 nM

Q: Entry under review: "COc1ccccc1C(=O)n1nc(-c2ccccn2)nc1NCc1ccc2ccccc2c1" . Reported IC50?
A: > 1000 nM
